targetOrSystem: T1, 4H1804-bH
T1 chain: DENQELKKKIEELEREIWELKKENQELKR
assayDetails: two-hybrid library CCNG1;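 also: natural log of median RNA to DNA barcode read ratio; higher means stronger binding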
attributeMeasured: interaction score

Completed entries (count: 5):
INSERT INTO results (binder, measured) VALUES
  ('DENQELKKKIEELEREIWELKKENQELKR [4H1804-bH]', 0.525),
  ('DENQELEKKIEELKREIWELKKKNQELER [4H1359-bH]', 0.574),
  ('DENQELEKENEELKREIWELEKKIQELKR [4H1222-bH]', 0.345),
  ('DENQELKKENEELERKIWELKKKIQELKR [4H1710-bH]', -0.929),
  ('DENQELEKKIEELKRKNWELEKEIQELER [4H1393-bH]', -1.63);

a. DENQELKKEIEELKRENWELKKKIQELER [4H1629-bH]
b. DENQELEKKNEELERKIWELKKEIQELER [4H1449-bH]
stdin: Kindly identify which of a and b has the larger recorded interaction score value. Returns: label corresponding to the selected item.
stdout: b
